Here, each record is paired with measured In Vitro Score (score, % of positive control peptide) data.
# system.under.test: HLA-B*08:01 (recombinant MHC class I molecule) (human)
# test.method.notes: REVEAL MHC-peptide binding assay, recombinant HLA-B*08:01
# run.parameters: remark: other sources report otherwise

IFWVKRGAK: 2.2
FIIFWVHRG: 0.2
WVKRGAKKL: 34.1

Request: Find the recorded In Vitro Score (score, % of positive control peptide) belonging to `IIFWVQRGR` and report it.
Result: 0.1

Request: Find the recorded In Vitro Score (score, % of positive control peptide) belonging to `IFWVKRGNK` and report it.
Result: 0.1

Request: Find the recorded In Vitro Score (score, % of positive control peptide) belonging to `IFWVHRGRK` and report it.
Result: 0.1

Request: Find the recorded In Vitro Score (score, % of positive control peptide) belonging to `IIFWVKRGR` and report it.
Result: 0
